Readings of Ki for the listed compounds
molecular target: human V1a receptor (Homo sapiens); construct: expressed in transfected cells; host or cells: HEK293 cells, transiently transfected; membrane preparation; experiment: V1a activity: human V1a receptor binding (3H-Vasopressin SPA, HEK293 membranes); settings: membranes of HEK293 cells transiently transfected with human V1a receptor, Ki by Cheng-Prussoff equation, read-out: pKi hV1a (converted)
Give just the number in nM; leave the unit off.

[in] Query: Ki; subject: "COc1ccc2c(c1)C1(CCN(C(=O)c3ccc(Cl)c(Cl)c3)CC1)OC2=O"
[out] 28.8

[in] Query: Ki; subject: "COc1cc(C(=O)N2CCC3(CC2)OCc2ccccc23)c2[nH]ccc2c1"
[out] 50.1

---

target: human V1a receptor (Homo sapiens, UniProt P37288); construct: expressed in transfected cells; host or cells: HEK293 cells, transiently transfected; membrane preparation; test: V1a activity: human V1a receptor binding (3H-Vasopressin SPA, HEK293 membranes); conditions: membranes of HEK293 cells transiently transfected with human V1a receptor, Ki by Cheng-Prussoff equation, read-out: pKi hV1a (converted)
Sequence (P37288 whole entry): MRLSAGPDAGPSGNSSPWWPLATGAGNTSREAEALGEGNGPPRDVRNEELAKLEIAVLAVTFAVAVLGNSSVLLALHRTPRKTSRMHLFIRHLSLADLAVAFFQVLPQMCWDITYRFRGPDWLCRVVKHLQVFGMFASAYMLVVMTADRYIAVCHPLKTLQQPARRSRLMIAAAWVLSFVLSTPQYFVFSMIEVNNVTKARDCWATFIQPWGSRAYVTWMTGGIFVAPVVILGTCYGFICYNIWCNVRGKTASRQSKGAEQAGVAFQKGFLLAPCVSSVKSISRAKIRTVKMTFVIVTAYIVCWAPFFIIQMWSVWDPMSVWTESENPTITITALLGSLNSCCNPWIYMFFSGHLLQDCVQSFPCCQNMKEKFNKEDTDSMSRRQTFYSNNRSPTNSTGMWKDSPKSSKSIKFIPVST
Readings of Ki for the listed compounds
Give just the number in nM; leave the unit off.

// below: answered compounds
{"columns": ["chemical-smiles", "Ki [nM]"],
 "data": [
  ["COc1ccc2c(c1)C1(CCN(C(=O)c3ccc4ccccc4c3)CC1)OC2=O", 8.32],
  ["O=C(c1ccc(Cl)c(Cl)c1)N1CCC2(CCc3ccccc32)CC1", 112],
  ["O=C(c1ccc2ccccc2c1)N1CCC2(CC1)C(=O)Nc1ccc(Br)cc12", 110]
]}

Okay, now this compound:
[in] Query: Ki; subject: "O=C1OC2(CCN(C(=O)c3ccc(Cl)c(Cl)c3)CC2)c2ccc(F)cc21"
[out] 29.5

The measurements presented in this section are drawn from patent US20080153862A1.
